System: HEK-293T
Test: Multiplex assay against HEK293T
Assay type: toxicity, cell-based
Conditions: human, 24 h, 1 µM, compound concentration 1 uM, replicate 2
experimental readout: Population Healthy Nuclei (%)
Answers are plain numbers, in %.

Some entries whose results are on file:
CC(C)C[C@H](CO)Nc1nc(S[C@@H](C)c2ccccc2)nc2nc(N)sc12; 81
C[C@H](NC(=O)CNC(=O)c1cccc(Cl)c1)c1ccccc1; 84
COC(c1ccccc1)(c1ccccc1)[C@H](Oc1nc(C)cc(C)n1)C(=O)O; 82
COCCCN1CCC(NC(=O)c2cc(Cl)c(N)c3c2OCC3)CC1 [PRUCALOPRIDE]; 84
Cc1cc(-c2ccc3c(c2)CC[C@H]3N2CC3(CCN(C(=O)Cc4cn5cc(C)sc5n4)CC3)C2)ncn1; 78
Cc1cc(=O)n(C)c2cc(N3C(=O)CC[C@H](NS(=O)(=O)CC(C)C)[C@H]3c3ccc(Cl)cc3)ccc12; 82

Go through the list and state Population Healthy Nuclei (%) for each entry.
1. CSc1nc(NC2CCCC2)c([N+](=O)[O-])c(NC2CCCC2)n1
2. COc1c(Nc2ccc(S(C)(=O)=O)nc2C)ncnc1OC1CCN(C(=O)OC(C)C)CC1
3. Nc1nc(CC(=O)Nc2ccc(CCNC[C@H](O)c3ccccc3)cc2)cs1

84
84
83

====

Could you please report measured Population Fragmented Nuclei (%) for the items listed next?
Test system: Fibroblast
Test: Multiplex assay against human fibroblast
Format: toxicity, cell-based
Conditions: 12 h, 1 µM, compound concentration 1 uM, replicate 2

Go through the list and state Population Fragmented Nuclei (%) for each entry.
1. C=CCN1C[C@H](C(=O)N(CCCN(C)C)C(=O)NCC)C[C@@H]2c3cccc4[nH]cc(c34)C[C@H]21
2. CC(C)C[C@H](CO)Nc1nc(S[C@@H](C)c2ccccc2)nc2nc(N)sc12
3. CCCCC[C@H](O)/C=C/[C@H]1[C@H](O)CC(=O)[C@@H]1CCCCCCC(=O)O
4. O=C(NCCNCC(O)COc1ccc(O)cc1)N1CCOCC1.O=C(NCCNCC(O)COc1ccc(O)cc1)N1CCOCC1.O=C(O)/C=C/C(=O)O (centres undefined) [XAMOTEROL FUMARATE]

20%
22%
23%
23%

====

System: U2OS
Experiment: Multiplex assay against U2OS
Format: toxicity, cell-based
Conditions: human, 48 h, 1 µM, compound concentration 1 uM, replicate 1
Non-standard residues stand in square brackets, D forms with d. Residues, ends and D or L forms follow the SMILES beside them.
experimental readout: Population Mitotic Cells (%)

CN(C)C/C=C/C(=O)Nc1ccc(C(=O)N2CCCC(Nc3ncc(Cl)c(-c4c[nH]c5ccccc45)n3)C2)cc1 (centres undefined); 5%
Cc1ccc(OCC(O)C(C)NC(C)C)c2c1CCC2.Cl (centres undefined); 11%
CC(C)C[C@@H]1NC(=O)[C@@H](C(C)C)NC(=O)[C@@H]2CCCN2C(=O)[C@@H](CC(=O)O)NC(=O)[C@@H](Cc2c[nH]c3ccccc23)NC1=O [BQ-123] (cyclo(L[dW][dD]P[dV])); 22%

Consider the record given below.
# get_value(readout='Population Mitotic Cells (%)', item= `COc1ccc2[nH]c(I)c(CCNC(C)=O)c2c1` )
7%

====

Tested on: Fibroblast
Assay: Multiplex assay against human fibroblast
Assay type: toxicity, cell-based
Conditions: 12 h, 1 µM, compound concentration 1 uM, replicate 1
experimental readout: Population Mitochondria Different-Phenotype (%)
Numbers only, in %.

Some entries whose results are on file:
Cc1nn(C)c2nc(NNC(=O)Nc3cc(Cl)nc(Cl)c3)cc(C(C)C)c12; 4
O=c1ccc2ccc(OCCCCN3CCN(c4cccc5sccc45)CC3)cc2[nH]1 [BREXPIPRAZOLE]; 5
CC(C)C[C@H](CO)Nc1nc(S[C@@H](C)c2ccccc2)nc2nc(N)sc12 [AZD-8797]; 3
CC(C)(C)c1ccc(CSc2cnn(C(C)(C)C)c(=O)c2Cl)cc1 [PYRIDABEN]; 1
C[C@@H]1CC(=O)Nc2cccc(-c3ccc4c(c3)c(-c3cnn(C)c3)nn4C)c2N1; 4
C[C@H](NC(=O)CNC(=O)c1cccc(Cl)c1)c1ccccc1; 4

Go through the list and state Population Mitochondria Different-Phenotype (%) for each entry.
1. O=C(O)CCC/C=C\CC1C(O)CC(O)C1/C=C/C(O)COc1cccc(Cl)c1 (centres undefined) [CLOPROSTENOL]
2. O=c1nc2[nH]c3ccccc3nc-2c(=O)[nH]1 [ALLOXAZINE]
3. Cl.Cl.OCCOCCN1CCN(C(c2ccccc2)c2ccc(Cl)cc2)CC1 (centres undefined) [HYDROXYZINE HYDROCHLORIDE]

[2, 2, 4]
